src = PubChem BioAssay (NCI)

# Test system: SF-539 CNS
# assay.notes: NCI tumour cell line growth inhibition, 48 h; in the data active means GI50 below about 0.43 µM; inactive means the rest
Permitted responses: active, inactive

Please review the following examples before continuing.
O=C1c2ccccc2C(=O)c2c(N=Nc3[nH]c(=S)[nH]c3O)cccc21
active
Clc1ccc(C2c3ccccc3-c3nccn32)c(Cl)c1 (stereo not given)
inactive
C1CN1c1nc(N2CC2)nc(N2CC2)n1
inactive
COC(=O)C1=C(O)[C@H](C(=O)OC)C2(O)[C@@H](C(=O)OC)[C@H]1C[C@@H](c1ccc(OC(=O)n3ccnc3)cc1)[C@@H]2C(=O)OC
inactive

Lab note: next molecule to report on.
-- ask What classification did O=C(O)CCCn1c(SCc2c(Cl)cccc2Cl)nc2ccsc2c1=O end up with in this test?
-- reply active

* * *

# System: CCRF-CEM leukemia
# assay.notes: NCI tumour cell line growth inhibition, 48 h
measured.endpoint: GI50

COc1ccc(/C=C/C(=O)c2cccc(B(O)O)c2)cc1O
3.13 µM
COc1ccc(/C=N/C2=C(C#N)C(c3ccccc3)c3c(ccc4ccccc34)O2)cc1 (centres undefined)
0.751 µM
COC(=O)[C@@H](C[C@H](Cc1ccccc1)NC(=O)c1csc([C@@H](C[C@H](C(C)C)N(C)C(=O)[C@@H](NC(=O)[C@H]2CCCCN2C)C(C)C)OC(C)=O)n1)NC(=O)OCc1ccccc1
< 0.000833 µM

Next item in the queue.
-- ask What value of GI50 has been recorded for this entry: COC(=O)C(N)CSC(c1ccccc1)(c1ccccc1)c1ccccc1 (centres undefined)
-- reply 0.636 µM

* * *

Each entry below carries its recorded TGI.
# System: XF 498 CNS
# assay.notes: NCI tumour cell line growth inhibition, 48 h

Previously resolved entries follow.
COc1ccc2cc3[n+](cc2c1O)CCc1cc2c(cc1-3)OCO2
> 100 µM
Cn1cc(NC(=O)[C@H]2CCC(N)=N2)cc1C(=O)NCCC(=N)N
> 100 µM
C1CN1c1nc(N2CC2)nc(N2CC2)n1
17.2 µM
COc1cc(/C=N/c2nncs2)ccc1O
> 100 µM

-- ask What value of TGI has been recorded for this entry: O=C(CCN1CCCC1)CC(c1ccccc1)c1c(O)c2ccccc2oc1=O (stereo unspecified)
-- reply > 100 µM

-- ask What value of TGI has been recorded for this entry: C/C(O)=C/c1nc2ccccc2[nH]1
-- reply > 100 µM

* * *

# Tested on: BT-549 breast
# assay.notes: NCI tumour cell line growth inhibition, 48 h
Each entry below carries its recorded TGI.

Previously resolved entries follow.
COC(=O)[C@@H](C[C@H](Cc1ccccc1)NC(=O)c1csc([C@@H](C[C@H](C(C)C)N(C)C(=O)[C@@H](NC(=O)[C@H]2CCCCN2C)C(C)C)OC(C)=O)n1)NC(=O)OCc1ccccc1
0.0839 µM
NC1CSc2ccccc2NC1=O (centres undefined)
> 100 µM
O=C(O)C(Cc1c[nH]c2ccccc12)C(=O)NO (centres undefined)
> 100 µM
CCCCNc1nc(N)nc(Nc2ccc(Br)cc2)c1N=O
> 100 µM
c1ccc2cc(CN3CCC(C4CCN(Cc5ccc6ccccc6c5)CC4)CC3)ccc2c1
27.4 µM

-- ask What value of TGI has been recorded for this entry: O=c1[nH]nc(Cc2ccccc2)n1/N=C\CC/C=N\n1c(Cc2ccccc2)n[nH]c1=O
-- reply > 100 µM

-- ask What value of TGI has been recorded for this entry: N=C(N)SCCc1ccncc1
-- reply > 100 µM

-- ask What value of TGI has been recorded for this entry: CN(C)CCNc1ccc(NCCN(C)C)c2c1C(=O)c1ncsc1C2=O
-- reply 35.1 µM

-- ask What value of TGI has been recorded for this entry: CCCCc1ccc(Nc2nc(=S)c3ncn(COCCO)c3[nH]2)cc1
-- reply > 100 µM

* * *

# System: SF-295 CNS
# assay.notes: NCI tumour cell line growth inhibition, 48 h; in the data active means GI50 below about 0.43 µM; inactive means the rest
Permitted responses: 1 for active, -1 for inactive

-- ask What classification did CN1CCN(c2ccc3nc(-c4c5cccccc-5[nH]c4=O)[nH]c3c2)CC1 end up with in this test?
-- reply -1

-- ask What classification did COC(=O)[C@@H](C[C@H](Cc1ccccc1)NC(=O)c1csc([C@@H](C[C@H](C(C)C)N(C)C(=O)[C@@H](NC(=O)[C@H]2CCCCN2C)C(C)C)OC(C)=O)n1)NC(=O)OCc1ccccc1 end up with in this test?
-- reply 1

-- ask What classification did COc1cccc2c1-c1ccccc1C2=O end up with in this test?
-- reply 1

-- ask What classification did COc1ccc(S(=O)(=O)Nc2cc(/C=C\c3cc(OC)c(OC)c(OC)c3)cc(OC)c2OC)cc1 end up with in this test?
-- reply 1

-- ask What classification did FC(F)(F)c1ccc(-c2cncn2-c2ccccc2)cc1 end up with in this test?
-- reply -1

-- ask What classification did Cc1ccc(C2=C(c3ccc(C)cc3)C3(c4ccc(C)cc4)[C@@H](C#N)[C@H](C#N)C2(c2ccc(C)cc2)S3=O)cc1 (stereo partly specified) end up with in this test?
-- reply -1

* * *

# System: A549 NSCLC
# assay.notes: NCI tumour cell line growth inhibition, 48 h
measured.endpoint: GI50

-- ask What value of GI50 has been recorded for this entry: COc1ccc(/C=C/C(=O)c2cccc(B(O)O)c2)cc1O
-- reply 3.35 µM

-- ask What value of GI50 has been recorded for this entry: Cc1cc(Nc2cccc(F)c2)nc(NCc2ccccc2)n1
-- reply 6.44 µM

-- ask What value of GI50 has been recorded for this entry: O=C1OCC2=C1C(c1cccc(Cl)c1)c1cc3c(cc1N2CCO)OCO3 (stereo not given)
-- reply 0.498 µM

-- ask What value of GI50 has been recorded for this entry: Nc1ccn(C2OC(CO)C3[O][Sn]([c]4ccccc4)([c]4ccccc4)[O]C32)c(=O)n1 (stereo not given)
-- reply 0.0344 µM

-- ask What value of GI50 has been recorded for this entry: CCN(CC)CCOc1ccc(/C=C2\CC3C4CC=C5C[C@@H](N6CCCC6)CC[C@]5(C)C4CC[C@]3(C)[C@H]2OC(C)=O)cc1OC (stereo not given in full)
-- reply 1.64 µM

* * *

# System: SW-620 colon
# assay.notes: NCI tumour cell line growth inhibition, 48 h; in the data active = GI50 below about 0.43 µM; inactive = the rest
Permitted responses: 1 for active, 0 for inactive

Please review the following examples before continuing.
O=C(N/N=C\c1c(O)ccc2ccccc12)C1CC1
0
COc1cccc2c1-c1ccccc1C2=O
0

-- ask What classification did FC(F)(F)c1cccc(Nc2nc3ccccc3nc2Nc2cccc(C(F)(F)F)c2)c1 end up with in this test?
-- reply 0

-- ask What classification did Cc1c2cnccc2c(C)c2c1c1cc(CO)ccc1n2C end up with in this test?
-- reply 1

* * *

# Test system: OVCAR-4 ovarian
# assay.notes: NCI tumour cell line growth inhibition, 48 h
measured.endpoint: TGI

-- ask What reported TGI corresponds to CC(C)[C@]12O[C@H]1[C@@H]1O[C@]13[C@]1(O[C@H]1C[C@H]1C4=C(CC[C@@]13C)C(=O)OC4)[C@@H]2OC(=O)CN(C)C on OVCAR-4 ovarian?
-- reply > 46.2 µM

-- ask What reported TGI corresponds to COc1ccc(S(=O)(=O)Nc2cc(/C=C\c3cc(OC)c(OC)c(OC)c3)cc(OC)c2OC)cc1 on OVCAR-4 ovarian?
-- reply > 100 µM

-- ask What reported TGI corresponds to O=C(OCCN=C1c2ccccc2CCc2ccccc21)c1ccccc1 on OVCAR-4 ovarian?
-- reply > 100 µM

-- ask What reported TGI corresponds to CC(C)(C)OC(=O)Nc1nnc(S(N)(=O)=O)s1 on OVCAR-4 ovarian?
-- reply > 100 µM

-- ask What reported TGI corresponds to CCCCC#COS(=O)(=O)c1ccc(C)cc1 on OVCAR-4 ovarian?
-- reply > 100 µM

* * *

# System: OVCAR-4 ovarian
# assay.notes: NCI tumour cell line growth inhibition, 48 h
measured.endpoint: TGI

Previously resolved entries follow.
C=C(C)C(=O)OC1CC2(C)OC(=CC2=O)C(C)CC2OC(=O)C(=C)C12 (stereo not given)
20.1 µM
Cc1ccc(-c2cc(C(=O)N3N=C(c4ccc(N)cc4)CC3c3ccc(Cl)cc3)c3ccccc3n2)cc1 (stereo not given)
> 100 µM

-- ask What value of TGI has been recorded for this entry: COc1ccc(C=Nc2c(O)ccc3ccccc23)cc1OC
-- reply > 100 µM

-- ask What value of TGI has been recorded for this entry: Cc1cc(-c2no[n+]([O-])c2-c2cc(C)sc2S(C)(=O)=O)c(S(C)(=O)=O)s1
-- reply > 100 µM

-- ask What value of TGI has been recorded for this entry: Cc1cc(C)c(OC(=O)Nc2cccc3ccccc23)c(-c2ccccc2)c1
-- reply > 100 µM

-- ask What value of TGI has been recorded for this entry: COC(=O)[C@@H](C[C@H](Cc1ccccc1)NC(=O)c1csc([C@@H](C[C@H](C(C)C)N(C)C(=O)[C@@H](NC(=O)[C@H]2CCCCN2C)C(C)C)OC(C)=O)n1)NC(=O)OCc1ccccc1
-- reply > 8.33 µM
